Can you tell me cytotoxicity at 10 µM for the items I'm about to list?
- Protocol description: Toxicity liver stage against HepG2, at 10uM
- Format: cell-based
- Set-up: test concentration 10 uM, cell line HepG2-A16-CD81EGFP
- Test settings: human, HepG2-A16-CD81EGFP cells; read-out: INHIBITION
Hi! Could you send only the number? It should be in %, unit omitted.

Name the recorded cytotoxicity at 10 µM for CN(C)C(=O)N1CCC2(CC1)C(c1cnn(C)c1)CC(=O)N2C (centres undefined) .
-78.2

Query c1ccc2c(c1)CC(N1CCCC(NCc3cccc4nonc34)C1)C2 (centres undefined) next
-1.98

Query c1ccc(-n2cc(CNCC3CCCN3c3cccnn3)nn2)cc1 (centres undefined) next
-1.47

Query "CC(C)Cc1ncc2c(n1)CN(c1nc3ccccc3cc1CO)C2" next
1.18

This collection of values is drawn from ChEMBL document CHEMBL4513216.
